For each record, write down the corresponding Vdss.
assay_name: Volume of distribution at steady state in Sprague-Dawley rat at 0.3 mg/kg, iv by LC-MS/MS analysis
Assay type: ADME, organism-based
assay_setup: in vivo
One number for each entry, in L/kg.

Observe how each entry below is paired with its result.
# structure, experimental_value
data = [
    ("CNC(=O)c1cn(C[C@H](F)CCc2ccc(NC(=O)Cc3cc(-c4cccc(OC(F)(F)F)c4)ccn3)nn2)nn1.Cl", 1),
    ("CNC(=O)c1cn(C[C@H](F)CCc2ccc(NC(=O)Cc3cc(C(F)(F)F)cc(C)n3)nn2)nn1", 0.2),
    ("CNC(=O)c1cn(C[C@H](F)CCc2ccc(NC(=O)Cc3cc(OC4CC(F)(F)C4)ccn3)nn2)nn1.Cl", 0.2),
]

The reported value for CNC(=O)c1cn(C[C@H](F)CCc2ccc(NC(=O)Cc3cc(OC4CC(F)(F)C4)cc(C)n3)nn2)nn1.Cl.Cl in terms of Vdss is 0.1

* * *

assay_name: Clearance in cynomolgus monkey at 0.3 mg/kg, iv by LC-MS/MS analysis
Assay type: ADME, organism-based, Macaca fascicularis
assay_setup: in vivo
test_readout: clearance (mL/min/kg)
One number for each entry, in mL/min/kg.

The reported value for CNC(=O)c1cn(C[C@H](F)CCc2ccc(NC(=O)Cc3cc(OC4CC(F)(F)C4)cc(C)n3)nn2)nn1.Cl.Cl in terms of clearance is 8

* * *

assay_name: Volume of distribution at steady state in cynomolgus monkey at 0.3 mg/kg, iv by LC-MS/MS analysis
Type: ADME, organism-based, Macaca fascicularis
assay_setup: in vivo, read-out: Vdss
test_readout: Vd (L/kg)
Answers are plain numbers, in L/kg.

The reported value for CNC(=O)c1cn(C[C@H](F)CCc2ccc(NC(=O)Cc3cc(OC4CC(F)(F)C4)cc(C)n3)nn2)nn1.Cl.Cl in terms of Vd is 0.31

* * *

assay_name: Volume of distribution at steady state in CD-1 mouse at 3 mg/kg, iv by LC-MS/MS analysis
Type: ADME, organism-based
assay_setup: in vivo, read-out: Vdss
test_readout: Vd (L/kg)
Answers are plain numbers, in L/kg.

The reported value for CNC(=O)c1cn(C[C@H](F)CCc2ccc(NC(=O)Cc3cc(OC4CC(F)(F)C4)cc(C)n3)nn2)nn1.Cl.Cl in terms of Vd is 0.27

* * *

assay_name: Permeability across apical to basolateral side in human Caco-2 cells at 10 uM measured after 90 mins by LC-MS/MS analysis
Assay type: ADME, cell-based
For each record, write down the corresponding permeability.

Report permeability for each item below.
1. CNC(=O)c1cn(C[C@H](F)CCc2ccc(NC(=O)Cc3cc(-c4cccc(OC(F)(F)F)c4)ccn3)nn2)nn1
2. CNC(=O)c1cn(C[C@H](F)CCc2ccc(NC(=O)Cc3cc(OC4CC(F)(F)C4)ccn3)nn2)nn1
3. CNC(=O)c1cn(C[C@H](F)CCc2ccc(NC(=O)Cc3cc(OC4CC(F)(F)C4)cc(C)n3)nn2)nn1 [IPN-60090]
4. CNC(=O)c1cn(C[C@H](F)CCc2ccc(NC(=O)Cc3cc(C(F)(F)F)cc(C)n3)nn2)nn1

# output
1: 5.8 10^-6 cm/s; 2: 1.8 10^-6 cm/s; 3: 5.2 10^-6 cm/s; 4: 7.7 10^-6 cm/s
